Reference for the values: patent US20180008587A1

Molecular target: F876L mutant Androgen Receptor (AR-F876L) (Homo sapiens, UniProt P10275, F877L)
Construct: expressed in transfected cells; host or cells: LNCaP (LNCaP F876L)
Sequence (P10275 whole entry F877L): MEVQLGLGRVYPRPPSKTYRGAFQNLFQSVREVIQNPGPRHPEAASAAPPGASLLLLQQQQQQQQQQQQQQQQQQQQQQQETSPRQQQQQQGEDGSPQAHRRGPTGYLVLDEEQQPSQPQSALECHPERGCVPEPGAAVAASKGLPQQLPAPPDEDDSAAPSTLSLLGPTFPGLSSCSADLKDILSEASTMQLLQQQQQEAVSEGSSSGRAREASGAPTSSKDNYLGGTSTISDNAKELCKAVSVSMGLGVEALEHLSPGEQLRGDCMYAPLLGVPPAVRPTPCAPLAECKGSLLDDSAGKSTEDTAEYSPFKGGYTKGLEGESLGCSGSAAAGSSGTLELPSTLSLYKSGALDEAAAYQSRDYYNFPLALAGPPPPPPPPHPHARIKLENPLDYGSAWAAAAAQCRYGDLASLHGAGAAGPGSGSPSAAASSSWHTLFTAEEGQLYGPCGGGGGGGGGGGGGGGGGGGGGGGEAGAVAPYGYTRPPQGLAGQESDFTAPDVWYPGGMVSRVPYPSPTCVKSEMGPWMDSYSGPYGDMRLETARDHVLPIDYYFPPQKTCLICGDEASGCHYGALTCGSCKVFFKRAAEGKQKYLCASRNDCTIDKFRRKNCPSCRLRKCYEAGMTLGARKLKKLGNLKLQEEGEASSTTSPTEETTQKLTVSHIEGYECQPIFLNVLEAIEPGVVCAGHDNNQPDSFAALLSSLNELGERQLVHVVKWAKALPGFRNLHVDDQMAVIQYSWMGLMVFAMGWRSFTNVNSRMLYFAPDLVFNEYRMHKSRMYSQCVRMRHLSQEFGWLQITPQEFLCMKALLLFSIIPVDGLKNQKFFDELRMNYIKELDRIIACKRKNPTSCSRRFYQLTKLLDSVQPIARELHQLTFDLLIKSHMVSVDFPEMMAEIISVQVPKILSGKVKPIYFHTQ
Experiment: LNCaP-AR-F876L ANT reporter assay (ARE firefly luciferase, antagonist mode)
Format: cell-based
Conditions: read-out: LNCaP-AR-F876L ANT MAX % Inh
A collection of compounds and their measured Emax
Write it as a number; the unit % goes unstated.

Worked cases, Emax given:
INSERT INTO assay_data (chemical_string, target_desc, unit, observed_value) VALUES
  ('N#Cc1ncc(N2C(=O)C3(CCC3)N(c3cccc4ccccc34)C2=S)cc1C(F)(F)F', 'F876L mutant Androgen Receptor (AR-F876L) (Homo sapiens, UniProt P10275, F877L)', '%', 99.4),
  ('N#Cc1ncc(N2C(=O)C3(CCC3)N(c3ccc(C(=O)NCCCN4CCOCC4)c(F)c3)C2=S)cc1C(F)(F)F', 'F876L mutant Androgen Receptor (AR-F876L) (Homo sapiens, UniProt P10275, F877L)', '%', 101);

Turning now to a further compound:
Query string: State the recorded Emax for this entry: N#Cc1ncc(N2C(=O)C3(CCC3)N(c3ccc(C(=O)NCc4ccccc4Cl)c(F)c3)C2=S)cc1C(F)(F)F
Result string: 91
